melting point: recorded values

- COc1ccc(C2CC(c3ccc(OC)c(OC)c3)=NN2c2nc(C)c(N=Nc3ccc(S(N)(=O)=O)cc3)s2)cc1 (stereo not shown): 200 to 202 °C

// query Give the measured melting point of COc1ccc(C2=NN(c3nc(-c4cc5ccccc5oc4=O)cs3)C(c3ccc(Cl)cc3)C2)cc1OC (stereo not shown) [Compound 10b] .
// result 238 to 240 °C

// query What does the data say about its melting point? Entry: COc1ccc(C2=NN(C3=NC(=O)CS3)C(c3ccc(Cl)cc3)C2)cc1OC (stereo not shown)
// result 208 to 210 °C

// query Data request, read-out melting point, for COc1ccc(C2CC(c3ccc(OC)c(OC)c3)=NN2C2=NC(=O)C(=NNc3ccc(S(N)(=O)=O)cc3)S2)cc1 (stereo not shown)
// result 249 to 251 °C

====

# Target: HER2 Kinase (Homo sapiens)
# Sequence (P04626 23-1255): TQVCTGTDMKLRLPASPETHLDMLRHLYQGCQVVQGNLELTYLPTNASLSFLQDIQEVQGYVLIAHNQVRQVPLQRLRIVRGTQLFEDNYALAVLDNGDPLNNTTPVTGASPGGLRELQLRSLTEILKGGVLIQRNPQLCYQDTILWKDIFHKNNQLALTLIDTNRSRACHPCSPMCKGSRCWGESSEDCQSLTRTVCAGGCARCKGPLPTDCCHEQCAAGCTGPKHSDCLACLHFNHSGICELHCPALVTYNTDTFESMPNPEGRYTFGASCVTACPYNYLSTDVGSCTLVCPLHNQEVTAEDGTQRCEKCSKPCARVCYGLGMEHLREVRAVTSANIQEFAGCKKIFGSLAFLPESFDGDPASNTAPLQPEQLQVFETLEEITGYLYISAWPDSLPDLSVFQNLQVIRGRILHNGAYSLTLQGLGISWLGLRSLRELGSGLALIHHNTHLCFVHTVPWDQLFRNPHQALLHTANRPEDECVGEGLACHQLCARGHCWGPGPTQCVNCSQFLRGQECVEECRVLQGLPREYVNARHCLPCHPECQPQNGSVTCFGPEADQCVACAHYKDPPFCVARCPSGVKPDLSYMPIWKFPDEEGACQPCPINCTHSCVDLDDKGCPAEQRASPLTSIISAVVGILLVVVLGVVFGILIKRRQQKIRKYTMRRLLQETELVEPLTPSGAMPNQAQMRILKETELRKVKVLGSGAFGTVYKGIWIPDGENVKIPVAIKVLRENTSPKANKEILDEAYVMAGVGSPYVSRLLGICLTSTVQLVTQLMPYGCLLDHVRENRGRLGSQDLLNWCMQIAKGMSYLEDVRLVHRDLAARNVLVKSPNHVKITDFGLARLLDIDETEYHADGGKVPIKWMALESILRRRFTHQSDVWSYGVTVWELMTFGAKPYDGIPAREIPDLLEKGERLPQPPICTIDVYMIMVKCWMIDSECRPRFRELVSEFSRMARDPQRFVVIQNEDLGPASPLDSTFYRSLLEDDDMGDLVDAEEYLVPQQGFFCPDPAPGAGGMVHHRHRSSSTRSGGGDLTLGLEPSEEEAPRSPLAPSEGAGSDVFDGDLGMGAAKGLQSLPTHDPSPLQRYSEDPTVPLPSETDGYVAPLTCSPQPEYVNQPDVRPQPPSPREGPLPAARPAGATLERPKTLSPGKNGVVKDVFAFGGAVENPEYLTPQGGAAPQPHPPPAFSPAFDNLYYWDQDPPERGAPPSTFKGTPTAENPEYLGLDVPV
# Assay protocol: HER2 kinase inhibitory assay (BPS Bioscience kit)
Entries and their IC50 values follow.
Response body: numeric value in nM, unit text excluded.

- COc1ccc(C2=NN(c3nc(-c4cc5ccccc5oc4=O)cs3)C(c3ccc(Cl)cc3)C2)cc1OC (stereo not drawn) [Compound 10b]: 65
- COc1ccc(C2CC(c3ccc(OC)c(OC)c3)=NN2c2nc(-c3cc4ccccc4oc3=O)cs2)cc1 (stereo not drawn) [Compound 10a]: 22

// query Which IC50 value belongs to COc1ccc(C2CC(c3ccc(OC)c(OC)c3)=NN2C2=NC(=O)CS2)cc1 (stereo not drawn) ?
// result 47

====

# System: MCF-10A
# Assay protocol: MTT cytotoxicity assay toward MCF-10A
# Type: cell-based
# Protocol conditions: Homo sapiens, 48 h
Observable: IC50

• CS(=O)(=O)CCNCc1ccc(-c2ccc3ncnc(Nc4ccc(OCc5cccc(F)c5)c(Cl)c4)c3c2)o1 [Lapatinib, reference compound] = ≥ 50 µM
• COc1ccc(C2=NN(C3=NC(=O)CS3)C(c3ccc(Cl)cc3)C2)cc1OC (centres unmarked) = 32.8 µM
• COc1ccc(C2CC(c3ccc(OC)c(OC)c3)=NN2C2=NC(=O)CS2)cc1 (centres unmarked) = ≥ 50 µM
• COc1ccc(C2=NN(c3nc(-c4cc5ccccc5oc4=O)cs3)C(c3ccc(Cl)cc3)C2)cc1OC (centres unmarked) [Compound 10b] = 27.1 µM

// next entry
// query Recorded IC50 for COc1ccc(C2CC(c3ccc(OC)c(OC)c3)=NN2c2nc(-c3cc4ccccc4oc3=O)cs2)cc1 (centres unmarked) [Compound 10a] , please?
// result ≥ 50 µM

====

# System: MCF-7
# Assay protocol: MTT anti-proliferative assay toward MCF-7
# Protocol conditions: Homo sapiens, MCF7, 48 h, read-out: IC50 toward MCF-7
Observable: IC50 (µM)
Use µM as the unit, but write only the number.

Below: 5 compounds and their reported IC50.
• COc1ccc(C2CC(c3ccc(OC)c(OC)c3)=NN2c2nc(C)c(N=Nc3ccc(S(N)(=O)=O)cc3)s2)cc1 (centres unmarked) = 17.1
• COc1ccc(C2=NN(C3=NC(=O)C(=C4C(=O)Nc5ccccc54)S3)C(c3ccc(Cl)cc3)C2)cc1OC (centres unmarked) = 19.5
• COc1ccc(C2CC(c3ccc(OC)c(OC)c3)=NN2c2nc(-c3cc4ccccc4oc3=O)cs2)cc1 (centres unmarked) [Compound 10a] = 3.37
• COc1ccc(C2=NN(C3=NC(=O)C(=NNc4ccc(S(N)(=O)=O)cc4)S3)C(c3ccc(Cl)cc3)C2)cc1OC (centres unmarked) = 25.7
• COc1ccc(C2=NN(c3nc(-c4cc5ccccc5oc4=O)cs3)C(c3ccc(Cl)cc3)C2)cc1OC (centres unmarked) [Compound 10b] = 3.54

// query Checklist item: IC50 tested on MCF-7, entry COc1ccc(C2CC(c3ccc(OC)c(OC)c3)=NN2C2=NC(=O)CS2)cc1 (centres unmarked) , value?
// result 4.08

// query Look up IC50 with MCF-7 for this compound: COc1ccc(C=C2SC(N3N=C(c4ccc(OC)c(OC)c4)CC3c3ccc(Cl)cc3)=NC2=O)cc1 (centres unmarked)
// result 20.2

// query GET /values?readout=IC50&system=MCF-7&item= COc1ccc(C2=NN(c3nc(C)c(N=Nc4ccc(Cl)cc4)s3)C(c3ccc(Cl)cc3)C2)cc1OC (centres unmarked)
// result 18.7

// query Request - read-out IC50 | tested on MCF-7 | compound COc1ccc(C2CC(c3ccc(OC)c(OC)c3)=NN2C2=NC(=O)C(=NNc3ccc(Cl)cc3)S2)cc1 (centres unmarked)
// result 30.2

// query Any idea what IC50 came out for COc1ccc(C2=NN(C3=NC(=O)C(=Cc4ccccc4)S3)C(c3ccc(Cl)cc3)C2)cc1OC (centres unmarked) on MCF-7?
// result 21.2

// query Lab request: please report IC50 under test system MCF-7 for COc1ccc(C=C2SC(N3N=C(c4ccc(OC)c(OC)c4)CC3c3ccc(OC)cc3)=NC2=O)cc1 (centres unmarked)
// result 20
